Listing of recorded GI50 by entry.
Tested on: XF498
Assay: NCI tumour cell line growth inhibition, 48 h
Active and inactive are the calls of the source. Cut-off read from the data, not from the text of the source: active = GI50 up to about 1.1 µM and inactive = higher.

Study these solved cases before continuing.
[
  {
    "Compound": "CC1=C(C(=O)NCc2ccccc2)C(c2ccccc2[N+](=O)[O-])C(C(=O)NCc2ccccc2)=C(C)N1",
    "GI50": "18 µM (inactive)"
  },
  {
    "Compound": "COc1ccc(/C=C/C(=N\\NC(=O)c2ccccc2)c2sc(Nc3ccc([N+](=O)[O-])cc3)nc2C)cc1OC",
    "GI50": "10.3 µM (inactive)"
  },
  {
    "Compound": "CC1CCC2c3c([nH]c4ccccc34)C3C(=O)N(c4ccccc4)C(=O)C3C2C1 (stereo not given)",
    "GI50": "1.82 µM (inactive)"
  },
  {
    "Compound": "Cn1c(=O)c2nc3sc4ccccc4c(=N)n3c2n(C)c1=O",
    "GI50": "> 100 µM (inactive)"
  },
  {
    "Compound": "O=C(CN1CCN(c2cccc(Cl)c2)CC1)N1CCc2c([nH]c3ccccc23)C1c1cccnc1 (stereo not given)",
    "GI50": "12.2 µM (inactive)"
  },
  {
    "Compound": "CCOC(=O)[C@H]1Nc2ccc(Cl)cc2[C@H]2OCC[C@@H]12",
    "GI50": "> 100 µM (inactive)"
  }
]

Next:
input: For the compound "CCOc1ccccc1NC(=O)CCC(=O)NN" , give its measured GI50 value.
output: > 100 µM (inactive)

====

Test system: SNB-19
Assay: NCI tumour cell line growth inhibition, 48 h
Active and inactive are the calls of the source. No stated cut-off is given here; in the data, active = GI50 up to about 1.1 µM and inactive = higher.
Listing of recorded GI50 by entry.

input: // output GI50; input O=C1C(Cl)C(c2cc3cc(Br)ccc3nc2Cl)N1c1c(Cl)cccc1Cl (configuration not stated) ; system SNB-19
output: > 25 µM (inactive)

input: // output GI50; input "COc1ccc(/C=N/NC(=O)c2ccc(O)c(CN(C)C)c2)cc1" ; system SNB-19
output: > 100 µM (inactive)

input: // output GI50; input "COc1ccc2c3ccc4c(c3n(C)c2c1)C(=O)C=CC4=O" ; system SNB-19
output: > 100 µM (inactive)

input: // output GI50; input CCOC(=O)C1C(c2ccc(OC)cc2)c2c(n[nH]c2O)CC1(C)O (configuration not stated) ; system SNB-19
output: > 100 µM (inactive)

input: // output GI50; input "CS/C(=N\c1ccccc1)N(c1ccccc1)c1nc(=[N+](C)C)ss1.[O-][Cl+3]([O-])([O-])[O-]" ; system SNB-19
output: 2.22 µM (inactive)

input: // output GI50; input "O=c1[nH]n(Cc2ccccc2)c2ccc([N+](=O)[O-])cc12" ; system SNB-19
output: > 100 µM (inactive)

input: // output GI50; input "O=C1/C(=C/c2cccc([N+](=O)[O-])c2)CCCc2ccccc21" ; system SNB-19
output: 15.2 µM (inactive)

====

Test system: MDA-MB-231
Experiment: NCI tumour cell line growth inhibition, 48 h
Active and inactive are the calls of the source. Rule as the data show it: active = GI50 up to about 1.1 µM and inactive = higher.
Reported Endpoint: GI50

Study these solved cases before continuing.
[
  {
    "Compound": "COc1ccc(CNc2nc3cc(C(F)(F)F)ccc3nc2-c2ccccc2)cc1OC",
    "Experimental System": "MDA-MB-231",
    "GI50": "53.8 µM (inactive)"
  },
  {
    "Compound": "O=C(/C=C/c1ccc2c(c1)OCO2)Cc1nc2ncccc2[nH]c1=O",
    "Experimental System": "MDA-MB-231",
    "GI50": "> 100 µM (inactive)"
  },
  {
    "Compound": "CN(C(=O)c1ccc(Cl)s1)C(=S)N(C)C(=O)c1ccc(Cl)s1",
    "Experimental System": "MDA-MB-231",
    "GI50": "> 10 µM (inactive)"
  },
  {
    "Compound": "CCCCCCCCCCCC(=O)OC[C@H](C[As](=O)(O)O)OC(=O)CCCCCCCCCCC",
    "Experimental System": "MDA-MB-231",
    "GI50": "3.81 µM (inactive)"
  },
  {
    "Compound": "CC(C)(C)CNCCO",
    "Experimental System": "MDA-MB-231",
    "GI50": "> 100 µM (inactive)"
  }
]

input: // output GI50; input "Oc1cc(-c2ccc(F)cc2)nc2ncccc12" ; system MDA-MB-231
output: > 100 µM (inactive)

input: // output GI50; input "c1ccc(-c2nnc(-c3ccccn3)c3c2C[C@@H]2C[C@@H]4Cc5c(-c6ccccn6)nnc(-c6ccccn6)c5[C@@H]4[C@H]32)nc1" ; system MDA-MB-231
output: > 100 µM (inactive)

input: // output GI50; input CN(C)CCN1C(=O)c2ccccc2C1(O)c1ccc(Cl)cc1 (stereo not given) ; system MDA-MB-231
output: 44.6 µM (inactive)

input: // output GI50; input c1ccc2c(c1)CCCN1CCc3ccccc3C21 (stereo not given) ; system MDA-MB-231
output: 48.1 µM (inactive)

input: // output GI50; input "CCOC(=O)NC(C(F)(F)F)(C(F)(F)F)P(=O)(OC(C)C)OC(C)C" ; system MDA-MB-231
output: > 100 µM (inactive)

Taken from ChEMBL document CHEMBL1201862.
